Hello, the source for this data is patent US10570179B2, in case you need it.

Test system: S. aureus USA 300
Experiment: Minimal inhibitory concentration, microbroth dilution
Format: cell-based
Settings: Staphylococcus aureus, USA300; MIC; read-out: Minimal Inhibitory Concentrations (μM) S. aureus USA 300
Numbered stars: 1 amine (or outer) side, 2 acyl side, 3 side chain; on linkers, the order of the positions; unused ones are H or OH. Bridge positions count the residues as written; N and C are the ends. Square brackets hold non-standard residues; d marks the D form. Peptide text beside a SMILES is read from it. * marks the point of attachment. Piperazine(2S-CO,4-Me) = CN1CCN[C@H](C(=O)O)C1; Morpholine(3S-CO) = O=C(O)[C@@H]1COCCN1; Phe(3-Me) = Cc1cccc(C[C@H](N)C(=O)O)c1; NH(4-Cl-2-F-phenyl) = Fc1cc(Cl)ccc1N*; Pro(4R-Me) = C[C@H]1CN[C@H](C(=O)O)C1; Hyp = O=C(O)[C@@H]1C[C@@H](O)CN1; aThr = C[C@H](O)[C@H](N)C(=O)O; Pip = O=C(O)[C@@H]1CCCCN1; X3 = c1cc2c(cc1N*)OCCO2; CO = O=C([*:1])[*:2]; X2 = Fc1cc(N*)ccc1Cl
attributeMeasured: MIC (µM)
The answer is to be given in µM; state only the numeric part.

What value of MIC has been recorded for this entry: Cc1cccc(C[C@H](NC(=O)Nc2ccc(Cl)cc2F)C(=O)N[C@H]2COC(=O)[C@@H]3C[C@@H](C)CN3C(=O)[C@H](C)NC(=O)[C@@H]3CN(C)CCN3C(=O)[C@@H]3CCCN3C2=O)c1 [Compound 13] ({NH(4-Cl-2-F-phenyl)-CO}-[Phe(3-Me)]SP[Piperazine(2S-CO,4-Me)]A[Pro(4R-Me)]; ester 2-C) 2.5

Another compound: Cc1cccc(C[C@H](NC(=O)Nc2ccc(Cl)c(F)c2)C(=O)N[C@@H]2C(=O)N3CCC[C@H]3C(=O)N3CCCC[C@H]3C(=O)N[C@@H](C)C(=O)N3C[C@H](C)C[C@H]3C(=O)O[C@H]2C)c1 [Compound 35] ({X2-CO}-[Phe(3-Me)][aThr]P[Pip]A[Pro(4R-Me)]; ester 2-C) 0.625

Ok, now Cc1cccc(C[C@H](NC(=O)Nc2ccc3c(c2)OCCO3)C(=O)N[C@@H]2C(=O)N3C[C@H](O)C[C@H]3C(=O)N3CCOC[C@H]3C(=O)N[C@@H](C)C(=O)N3C[C@H](C)C[C@H]3C(=O)O[C@H]2C)c1 [Compound 27] ({X3-CO}-[Phe(3-Me)][aThr][Hyp][Morpholine(3S-CO)]A[Pro(4R-Me)]; ester 2-C) 20

---

Experiment: Plasma protein binding, rapid equilibrium dialysis
Assay type: in vitro ADME, human
Details: plasma binding, % Bound, human plasma, 10 μM
Description: This assay determines plasma protein binding of a drug/compound and free drug concentration in plasma using rapid equilibrium dialysis, which allow the aqueous component of plasma containing the free drug/compound through a dialysis membrane (MWCO˜8,000). […] Sample preparation for plasma protein binding was modified from Waters' method. […] The test compound concentrations were quantified in both buffer and plasma chambers via peak areas relative to the internal standard. […]
Numbered stars: 1 amine (or outer) side, 2 acyl side, 3 side chain; on linkers, the order of the positions; unused ones are H or OH. Bridge positions count the residues as written; N and C are the ends. Square brackets hold non-standard residues; d marks the D form. Peptide text beside a SMILES is read from it. * marks the point of attachment. Piperazine(2S-CO,4-Me) = CN1CCN[C@H](C(=O)O)C1; Phe(3,5-F2) = N[C@@H](Cc1cc(F)cc(F)c1)C(=O)O; NH(1-Me-indolin-5-yl) = CN1CCc2cc(N*)ccc21; Morpholine(3S-CO) = O=C(O)[C@@H]1COCCN1; Phe(3-Me) = Cc1cccc(C[C@H](N)C(=O)O)c1; Pro(4R-Me) = C[C@H]1CN[C@H](C(=O)O)C1; NH(4-Me-phenyl) = Cc1ccc(N*)cc1; aThr = C[C@H](O)[C@H](N)C(=O)O; Pip = O=C(O)[C@@H]1CCCCN1; CO = O=C([*:1])[*:2]
attributeMeasured: Human (%)
Supply the numeric figure in %, leaving out any unit text.

Would you kindly share the measured Human for Cc1ccc(NC(=O)N[C@@H](Cc2cccc(C)c2)C(=O)N[C@H]2COC(=O)[C@@H]3C[C@@H](C)CN3C(=O)[C@H](C)NC(=O)[C@@H]3CN(C)CCN3C(=O)[C@@H]3CCCN3C2=O)cc1 [Compound 15] ({NH(4-Me-phenyl)-CO}-[Phe(3-Me)]SP[Piperazine(2S-CO,4-Me)]A[Pro(4R-Me)]; ester 2-C) ? 95.2

Also check Cc1ccc(NC(=O)N[C@@H](Cc2cccc(C)c2)C(=O)N[C@@H]2C(=O)N3CCC[C@H]3C(=O)N3CCCC[C@H]3C(=O)N[C@@H](C)C(=O)N3C[C@H](C)C[C@H]3C(=O)O[C@H]2C)cc1 [Compound 1] ({NH(4-Me-phenyl)-CO}-[Phe(3-Me)][aThr]P[Pip]A[Pro(4R-Me)]; ester 2-C) 98.5

# repeat for C[C@@H]1C[C@H]2C(=O)O[C@@H](C)[C@H](NC(=O)[C@H](Cc3cc(F)cc(F)c3)NC(=O)Nc3ccc4c(c3)CCN4C)C(=O)N3CCC[C@H]3C(=O)N3CCOC[C@H]3C(=O)N[C@@H](C)C(=O)N2C1 [Compound 32] ({NH(1-Me-indolin-5-yl)-CO}-[Phe(3,5-F2)][aThr]P[Morpholine(3S-CO)]A[Pro(4R-Me)]; ester 2-C) 83.0
